assayed-system: Bifunctional epoxide hydrolase 2 (Mus musculus)
Sequence (P34914 whole entry): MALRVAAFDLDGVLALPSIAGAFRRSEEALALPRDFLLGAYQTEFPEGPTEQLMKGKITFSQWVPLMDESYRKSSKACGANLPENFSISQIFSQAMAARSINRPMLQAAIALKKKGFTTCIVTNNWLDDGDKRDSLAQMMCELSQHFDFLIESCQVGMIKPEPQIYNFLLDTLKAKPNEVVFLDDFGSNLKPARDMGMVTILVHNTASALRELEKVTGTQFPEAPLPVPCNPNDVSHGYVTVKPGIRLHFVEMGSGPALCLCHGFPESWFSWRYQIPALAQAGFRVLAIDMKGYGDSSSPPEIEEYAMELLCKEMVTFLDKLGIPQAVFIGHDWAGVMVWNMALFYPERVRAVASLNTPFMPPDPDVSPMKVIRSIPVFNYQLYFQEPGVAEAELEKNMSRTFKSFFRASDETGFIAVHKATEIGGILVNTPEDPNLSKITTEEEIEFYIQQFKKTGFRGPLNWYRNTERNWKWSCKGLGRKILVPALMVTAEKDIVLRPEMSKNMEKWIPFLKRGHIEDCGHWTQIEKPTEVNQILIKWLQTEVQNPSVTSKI
pIC50: −log10 of the molar value.

| compound | assayed-system | pIC50 |
| --- | --- | --- |
| O=C(Nc1ccc(C(=O)N2CCCCC2)cc1)NC1C2CC3CC(C2)CC1C3 (stereo not given) | Bifunctional epoxide hydrolase 2 (Mus musculus) | 9.40 |
| CC(C)CNC(=O)c1ccc(NC(=O)NC2C3CC4CC2CC(O)(C4)C3)cc1 (stereo not given) | Bifunctional epoxide hydrolase 2 (Mus musculus) | 5.63 |
| CC12CC3CC(C)(C1)CC(NC(=O)/C=C\C(=O)N1CCCCC1)(C3)C2 | Bifunctional epoxide hydrolase 2 (Mus musculus) | 4.09 |
| CC(NC(=O)Nc1ccc(C(=O)N2CCCCC2)cc1)C12CC3CC(CC(C3)C1)C2 (stereo not given) | Bifunctional epoxide hydrolase 2 (Mus musculus) | 8.62 |
| O=C(Nc1ccc(C(=O)NC2CCCCC2)cc1)NC1C2CC3CC1CC(O)(C3)C2 (stereo not given) | Bifunctional epoxide hydrolase 2 (Mus musculus) | 6.33 |

====

procedure-summary: Microsomal stability in human liver microsomes assessed as substrate remaining in presence of NADPH measured after 10 mins by LC-MS/MS analysis

| query-smiles | quantity-unit | residual activity |
| --- | --- | --- |
| CC12CC3CC(C)(C1)CC(NC(=O)Nc1ccc(C(=O)N4CCCCC4)cc1)(C3)C2 | % | 43 |

====

compounds and their reported pIC50
assayed-system: Bifunctional epoxide hydrolase 2 (Homo sapiens, UniProt P34913)
Sequence (P34913 whole entry): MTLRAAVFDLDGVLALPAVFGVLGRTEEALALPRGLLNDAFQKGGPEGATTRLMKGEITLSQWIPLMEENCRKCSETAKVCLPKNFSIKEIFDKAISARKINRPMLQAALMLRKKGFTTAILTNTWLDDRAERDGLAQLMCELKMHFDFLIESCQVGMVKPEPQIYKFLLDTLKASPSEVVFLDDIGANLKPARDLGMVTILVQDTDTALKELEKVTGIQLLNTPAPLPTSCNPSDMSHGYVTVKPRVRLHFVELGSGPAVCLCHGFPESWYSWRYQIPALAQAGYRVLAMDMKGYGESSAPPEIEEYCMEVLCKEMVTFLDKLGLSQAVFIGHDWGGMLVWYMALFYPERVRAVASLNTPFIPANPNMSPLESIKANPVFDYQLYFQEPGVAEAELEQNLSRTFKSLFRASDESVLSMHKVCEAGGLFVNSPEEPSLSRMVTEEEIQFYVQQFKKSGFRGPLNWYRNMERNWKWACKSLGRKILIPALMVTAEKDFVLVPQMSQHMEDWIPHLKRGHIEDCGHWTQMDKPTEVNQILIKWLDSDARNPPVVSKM
pIC50: −log10 of the molar value.

| compound | assayed-system | operator | pIC50 |
| --- | --- | --- | --- |
| CC(C)CNC(=O)c1ccc(C(=O)NC23CC4CC(C)(CC(C)(C4)C2)C3)cc1 | Bifunctional epoxide hydrolase 2 (Homo sapiens, UniProt P34913) | < | 4.00 |
| CC12CC3CC(C)(C1)CC(NC(=O)CCC(=O)NC1CCCCC1)(C3)C2 | Bifunctional epoxide hydrolase 2 (Homo sapiens, UniProt P34913) | = | 5.10 |
| CC(NC(=O)Nc1ccc(C(=O)N2CCCCC2)cc1)C12CC3CC(CC(C3)C1)C2 (stereo not drawn) | Bifunctional epoxide hydrolase 2 (Homo sapiens, UniProt P34913) | = | 8.41 |
| CC(C)CNC(=O)c1ccc(NC(=O)NC23CC4CC(C)(CC(C)(C4)C2)C3)cc1 | Bifunctional epoxide hydrolase 2 (Homo sapiens, UniProt P34913) | = | 9.15 |
| CC12CC3CC(C)(C1)CC(NC(=O)CCCC(=O)N1CCCCC1)(C3)C2 | Bifunctional epoxide hydrolase 2 (Homo sapiens, UniProt P34913) | = | 5.23 |
| CC(C)CNC(=O)c1ccc(NC(=O)NC2C3CC4CC(C3)CC2C4)cc1 (stereo not drawn) | Bifunctional epoxide hydrolase 2 (Homo sapiens, UniProt P34913) | = | 9.05 |
| CC12CC3CC(C)(C1)CC(NC(=O)CCC(=O)N1CCCCC1)(C3)C2 | Bifunctional epoxide hydrolase 2 (Homo sapiens, UniProt P34913) | = | 5.61 |
| CC(C)CNC(=O)CCCC(=O)NC1C2CC3CC(C2)CC1C3 (stereo not drawn) | Bifunctional epoxide hydrolase 2 (Homo sapiens, UniProt P34913) | = | 5.45 |
